Each recorded value in this set is attributed to ChEMBL document CHEMBL1961873.

- assayed_system: Cyclin-dependent kinase 4 (Homo sapiens) (UniProt P11802);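 note: enzyme tested as the CDK4–cyclin D complex, with the value reported as mean percent inhibition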
- Sequence (P11802 whole entry): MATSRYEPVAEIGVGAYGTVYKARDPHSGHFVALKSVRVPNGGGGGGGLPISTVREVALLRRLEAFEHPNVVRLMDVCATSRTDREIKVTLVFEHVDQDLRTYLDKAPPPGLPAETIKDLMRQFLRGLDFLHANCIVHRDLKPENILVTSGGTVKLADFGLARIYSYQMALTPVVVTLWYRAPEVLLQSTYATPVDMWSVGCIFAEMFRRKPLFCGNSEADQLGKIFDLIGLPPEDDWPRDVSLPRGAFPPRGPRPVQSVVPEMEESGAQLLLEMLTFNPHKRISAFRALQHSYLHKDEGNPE
- experimental_conditions: at 1 µM
For each record, write down the corresponding inhibition.
Give the number; % is assumed, so skip it.

inhibition lookup needed for `COc1cc(Nc2nccc(Nc3ccc4c(C)n[nH]c4c3)n2)cc(OC)c1OC` , thanks.
3.18

inhibition lookup needed for `Fc1ccc(-c2cc(-c3c[nH]nc3-c3ccccn3)ccn2)cc1` , thanks.
1.18

inhibition lookup needed for `O=C(O[C@H]1CN[C@H](C#Cc2cc3ncnc(Nc4ccc(Cc5ccccc5)cc4)c3s2)C1)N1CCOCC1` , thanks.
1.9

inhibition lookup needed for `Cc1cccc2c1NC(=O)/C2=N\Nc1ccc(S(N)(=O)=O)cc1` , thanks.
5.14

inhibition lookup needed for `N#Cc1c(NC(=O)CN2CCOCC2)sc2c1CCCC2` , thanks.
5.4

inhibition lookup needed for `CNC(=O)c1cccc(C#Cc2cncnc2Nc2ccc(OCc3cccc(F)c3)c(Cl)c2)c1` , thanks.
3.08

inhibition lookup needed for `COC(=O)Nc1nc2ccc(S(=O)(=O)c3ccc(NC(=O)Nc4cc(C(F)(F)F)ccc4F)cc3)cc2[nH]1` , thanks.
4.04

inhibition lookup needed for `CNC(=O)c1cc(-c2ccc(F)cc2)cc(-c2ccc(S(=O)(=O)N3CCCC3)cc2)c1N` , thanks.
2.17

inhibition lookup needed for `COc1cc2ncn(-c3cc(OCc4ccccc4C(F)(F)F)c(C(=O)N(C)C)s3)c2cc1OC` , thanks.
1.39

inhibition lookup needed for `CCN1CCC(CC(=O)Nc2n[nH]c3nnc(-c4cccc(F)c4F)cc23)CC1` , thanks.
32.5

inhibition lookup needed for `CNC(=O)c1cncc(/C=C/c2ccccc2Cl)c1` , thanks.
-0.33

inhibition lookup needed for `Fc1cccc(COc2ccc(Nc3ncnc4sc(-c5ccco5)cc34)cc2Cl)c1` , thanks.
5.13

inhibition lookup needed for `CN1CCC(n2cnc(-c3ccc(F)cc3)c2-c2ccnc(Nc3ccccc3)n2)CC1` , thanks.
2.55

inhibition lookup needed for `CS(=O)(=O)CCNCc1ccc(-c2ccc3ncnc(Nc4ccc(OCc5ccccc5)c(C(F)(F)F)c4)c3c2)o1` , thanks.
3.96

inhibition lookup needed for `O=S(=O)(CCNCc1ccc(-c2ccc3ncnc(Nc4ccc(OCc5cccc(F)c5)c(Cl)c4)c3c2)o1)c1ccccc1` , thanks.
5.57

inhibition lookup needed for `Nc1nc(-c2cccc(Cl)c2)c(-c2ccc3ncccc3n2)s1` , thanks.
1.92

inhibition lookup needed for `CCCN1CCC(c2ccc(Nc3nc(Nc4cc(F)ccc4C(N)=O)c4cc[nH]c4n3)c(OC)c2)CC1` , thanks.
25.7

inhibition lookup needed for `c1ccc(-c2nc3n(c2-c2ccc4c(c2)OCO4)CCC3)nc1` , thanks.
2.7

inhibition lookup needed for `CN(C)CCOc1ccc(-c2nc(-c3ccncc3)c(-c3ccc4c(c3)CC/C4=N\O)[nH]2)cc1` , thanks.
6.21

inhibition lookup needed for `Fc1ccc(-c2nn3ccccc3c2-c2ccncc2)cc1` , thanks.
2.18

* * *

For each record, write down the corresponding inhibition.
- assayed_system: Calcium/calmodulin-dependent protein kinase type IV (Homo sapiens) (UniProt Q16566)
- Sequence (whole entry): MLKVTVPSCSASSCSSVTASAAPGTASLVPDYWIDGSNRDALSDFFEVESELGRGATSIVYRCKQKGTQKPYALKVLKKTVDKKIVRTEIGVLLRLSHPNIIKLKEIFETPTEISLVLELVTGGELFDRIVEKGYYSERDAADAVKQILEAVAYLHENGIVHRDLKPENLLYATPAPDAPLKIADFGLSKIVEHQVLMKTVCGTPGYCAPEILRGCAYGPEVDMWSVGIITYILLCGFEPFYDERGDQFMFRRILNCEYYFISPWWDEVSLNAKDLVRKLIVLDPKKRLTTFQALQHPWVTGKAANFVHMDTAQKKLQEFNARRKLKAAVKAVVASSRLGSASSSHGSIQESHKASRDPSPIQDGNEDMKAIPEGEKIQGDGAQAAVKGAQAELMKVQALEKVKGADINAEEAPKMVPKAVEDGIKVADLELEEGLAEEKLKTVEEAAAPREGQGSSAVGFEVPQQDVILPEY
- experimental_conditions: at 0.1 µM

Requested read-out inhibition, target or system Calcium/calmodulin-dependent protein kinase type IV (Homo sapiens) (UniProt Q16566), entry `CCCN1CCC(c2ccc(Nc3nc(Nc4cc(F)ccc4C(N)=O)c4cc[nH]c4n3)c(OC)c2)CC1`
7.54%

Requested read-out inhibition, target or system Calcium/calmodulin-dependent protein kinase type IV (Homo sapiens) (UniProt Q16566), entry `COc1cc(Nc2nccc(Nc3ccc4c(C)n[nH]c4c3)n2)cc(OC)c1OC`
1.45%

Requested read-out inhibition, target or system Calcium/calmodulin-dependent protein kinase type IV (Homo sapiens) (UniProt Q16566), entry `CNC(=O)c1cncc(/C=C/c2ccccc2Cl)c1`
-3.66%

Requested read-out inhibition, target or system Calcium/calmodulin-dependent protein kinase type IV (Homo sapiens) (UniProt Q16566), entry `Fc1cccc(COc2ccc(Nc3ncnc4sc(-c5ccco5)cc34)cc2Cl)c1`
-1.87%

Requested read-out inhibition, target or system Calcium/calmodulin-dependent protein kinase type IV (Homo sapiens) (UniProt Q16566), entry `CCn1cc(-c2ccnc3[nH]ccc23)c(-c2cccc(NC(=O)Nc3ccc(OCc4ccccc4)cc3)c2)n1`
0.6%

Requested read-out inhibition, target or system Calcium/calmodulin-dependent protein kinase type IV (Homo sapiens) (UniProt Q16566), entry `COC(=O)Nc1nc2ccc(Oc3ccc(NC(=O)Nc4cccc(Cl)c4)cc3)cc2[nH]1`
0.3%

Requested read-out inhibition, target or system Calcium/calmodulin-dependent protein kinase type IV (Homo sapiens) (UniProt Q16566), entry `CCN(CC)S(=O)(=O)c1ccc(OC)c(Nc2ncc(-c3ccccc3)o2)c1`
-0.4%

Requested read-out inhibition, target or system Calcium/calmodulin-dependent protein kinase type IV (Homo sapiens) (UniProt Q16566), entry `NS(=O)(=O)c1ccc(N/N=C2\C(=O)Nc3ccc4ncccc4c32)cc1`
1.9%

Requested read-out inhibition, target or system Calcium/calmodulin-dependent protein kinase type IV (Homo sapiens) (UniProt Q16566), entry `CCc1nn2ncccc2c1-c1ccnc(NC2CC2)n1`
3.71%

Requested read-out inhibition, target or system Calcium/calmodulin-dependent protein kinase type IV (Homo sapiens) (UniProt Q16566), entry `CCN1CCC(CC(=O)Nc2n[nH]c3nnc(-c4cccc(F)c4F)cc23)CC1`;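 note: each value is a mean inhibition of CAMK4, part of the GSK PKIS kinase screening panel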
2.76%
